Kindly state DC50 for each of the entries shown.
# assay.target: EGFR L858R/T790M/C797S (BaF3-LTC cells) (Homo sapiens, UniProt P00533, C797S/L858R/T790M)
# Construct: expressed in transfected cells; host or cells: BaF3
# Sequence (P00533 25-1210 T790M/C797S/L858R): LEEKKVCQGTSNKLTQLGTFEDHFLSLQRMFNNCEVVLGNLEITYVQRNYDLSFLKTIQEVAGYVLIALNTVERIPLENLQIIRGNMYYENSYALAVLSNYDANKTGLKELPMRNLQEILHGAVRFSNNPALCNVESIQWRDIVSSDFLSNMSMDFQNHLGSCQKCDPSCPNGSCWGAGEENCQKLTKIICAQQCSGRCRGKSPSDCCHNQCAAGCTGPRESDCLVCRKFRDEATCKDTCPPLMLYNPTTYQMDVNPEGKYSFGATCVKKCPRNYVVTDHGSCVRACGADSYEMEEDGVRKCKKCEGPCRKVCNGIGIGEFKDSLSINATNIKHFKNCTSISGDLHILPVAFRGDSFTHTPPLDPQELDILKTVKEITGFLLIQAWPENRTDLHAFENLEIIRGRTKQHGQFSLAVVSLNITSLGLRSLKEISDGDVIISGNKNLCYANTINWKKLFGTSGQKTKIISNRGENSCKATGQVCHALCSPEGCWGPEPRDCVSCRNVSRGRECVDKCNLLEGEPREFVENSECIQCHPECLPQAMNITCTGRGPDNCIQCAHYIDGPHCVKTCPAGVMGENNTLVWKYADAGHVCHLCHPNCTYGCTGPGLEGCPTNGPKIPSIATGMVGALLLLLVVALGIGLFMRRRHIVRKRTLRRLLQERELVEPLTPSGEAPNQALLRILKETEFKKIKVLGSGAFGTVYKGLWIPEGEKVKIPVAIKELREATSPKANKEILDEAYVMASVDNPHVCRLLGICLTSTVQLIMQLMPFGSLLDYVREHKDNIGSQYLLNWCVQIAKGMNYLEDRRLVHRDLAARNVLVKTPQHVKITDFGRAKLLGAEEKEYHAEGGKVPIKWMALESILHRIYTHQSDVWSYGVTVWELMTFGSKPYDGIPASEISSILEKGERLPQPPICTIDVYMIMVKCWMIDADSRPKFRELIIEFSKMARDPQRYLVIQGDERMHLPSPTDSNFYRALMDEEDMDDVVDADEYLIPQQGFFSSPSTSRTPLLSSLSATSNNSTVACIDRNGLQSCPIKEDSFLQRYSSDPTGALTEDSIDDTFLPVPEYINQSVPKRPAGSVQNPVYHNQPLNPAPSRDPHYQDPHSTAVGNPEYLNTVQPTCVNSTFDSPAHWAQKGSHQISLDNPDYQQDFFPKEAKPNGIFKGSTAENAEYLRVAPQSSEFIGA
# run.description: EGFR degradation HTRF assay, BaF3-LTC cells
# Type: cell-based
# condition.context: BaF3-LTC, 16h treatment; read-out: LTC DC50
Response body: numeric value in µM, unit text excluded.

Value lookup for DC50; key = CCc1cc(Nc2ncc(Br)c(Nc3ccc4ncn(C)c(=O)c4c3P(C)(C)=O)n2)c(OC)cc1N1CCC(N2CCN(C(=O)C3CN(c4ccc5c(c4)CN(C4CCC(=O)NC4=O)C5=O)C3)CC2)CC1 (stereo not shown)
0.00734

Continue with CCc1cc(Nc2ncc(Br)c(Nc3ccc4nccnc4c3P(C)(C)=O)n2)c(OC)cc1N1CCC(N2CCN(C[C@@H]3CCN(c4ccc5c(c4)C(=O)N(C4CCC(=O)NC4=O)C5=O)C3)CC2)CC1 (stereo partly shown)
0.0301

What do you have for CCc1cc(Nc2ncc(Br)c(Nc3ccc4nc(C)ccc4c3P(C)(C)=O)n2)c(OC)cc1N1CCC(N2C[C@H](C)N(CCc3cc(F)c(C4CCC(=O)NC4=O)c(F)c3)C[C@H]2C)CC1 (stereo partly shown) ?
0.0082

Also, COc1cc(N2CCC(N3CC4CC(C3)N4CCC3CCN(c4cc(F)c(C5CCC(=O)NC5=O)c(F)c4)CC3)CC2)c(C)cc1Nc1ncc(Br)c(Nc2ccc3nccnc3c2P(C)(C)=O)n1 (stereo not shown) please.
0.0819

====

# assay.target: EGFR L858R/T790M/C797S (BaF3-LTC cells) (Homo sapiens, UniProt P00533, C797S/L858R/T790M)
# Construct: expressed in transfected cells; host or cells: BaF3
# run.description: EGFR degradation HTRF assay, BaF3-LTC cells
# Assay type: cell-based
# condition.context: BaF3-LTC cells; maximum percentage of inhibition (degradation); read-out: Dmax (%) BaF3-LTC
# Protocol: BaF3 WT(wild type), BaF3-LTC(L858R/T790M/C797S) and BaF3-DTC(Del19/T790M/C797S) cells are treated with compounds diluted in 0.2% DMSO cell culture medium and incubate for 16h, 37° C., 5% CO2, H1975-#36, H1975-#28, H1975-#23 and HCC827 cells are treated with compounds diluted in 0.2% DMSO cell culture medium on day 2, incubate for 16h, 37° C., 5% CO2.the final concentriation of compounds in all assay is start with 10 uM, 5-fold dilution, total 8 doses were included. […]
Provide the reported Dmax of each item.
Reply with the number and its unit after it.

What value of measured Dmax is listed for CCc1cc(Nc2ncc(C(F)(F)F)c(Nc3ccc4nc(C)ccc4c3P(C)(C)=O)n2)c(OC)cc1N1CCC(N2CCN(CCc3cc(F)c(C4CCC(=O)NC4=O)c(F)c3)CC2)CC1 (stereo not drawn) ?
85.1%

Param item: CCc1cc(Nc2ncc(Br)c(Nc3ccc4nc(C)sc4c3P(C)(C)=O)n2)c(OC)cc1N1CCC(N2CCN(CCc3cc(F)c([C@H]4CCC(=O)NC4=O)c(F)c3)CC2)CC1
85.8%

Quick one: CCc1ccc2c(P(C)(C)=O)c(Nc3nc(Nc4cc(C5CC5)c(N5CCC(N6CCN(CCc7cc(F)c([C@H]8CCC(=O)NC8=O)c(F)c7)CC6)CC5)cc4OC)ncc3Br)ccc2n1
85.9%

====

# assay.target: EGFR L858R/T790M (H1975-clone #36, homozygous) (Homo sapiens, UniProt P00533, L858R/T790M)
# Construct: designed to specifically target WT EGFR but preserve the L858R/T790M copy; host or cells: H1975-clone #36
# Sequence (P00533 25-1210 T790M/L858R): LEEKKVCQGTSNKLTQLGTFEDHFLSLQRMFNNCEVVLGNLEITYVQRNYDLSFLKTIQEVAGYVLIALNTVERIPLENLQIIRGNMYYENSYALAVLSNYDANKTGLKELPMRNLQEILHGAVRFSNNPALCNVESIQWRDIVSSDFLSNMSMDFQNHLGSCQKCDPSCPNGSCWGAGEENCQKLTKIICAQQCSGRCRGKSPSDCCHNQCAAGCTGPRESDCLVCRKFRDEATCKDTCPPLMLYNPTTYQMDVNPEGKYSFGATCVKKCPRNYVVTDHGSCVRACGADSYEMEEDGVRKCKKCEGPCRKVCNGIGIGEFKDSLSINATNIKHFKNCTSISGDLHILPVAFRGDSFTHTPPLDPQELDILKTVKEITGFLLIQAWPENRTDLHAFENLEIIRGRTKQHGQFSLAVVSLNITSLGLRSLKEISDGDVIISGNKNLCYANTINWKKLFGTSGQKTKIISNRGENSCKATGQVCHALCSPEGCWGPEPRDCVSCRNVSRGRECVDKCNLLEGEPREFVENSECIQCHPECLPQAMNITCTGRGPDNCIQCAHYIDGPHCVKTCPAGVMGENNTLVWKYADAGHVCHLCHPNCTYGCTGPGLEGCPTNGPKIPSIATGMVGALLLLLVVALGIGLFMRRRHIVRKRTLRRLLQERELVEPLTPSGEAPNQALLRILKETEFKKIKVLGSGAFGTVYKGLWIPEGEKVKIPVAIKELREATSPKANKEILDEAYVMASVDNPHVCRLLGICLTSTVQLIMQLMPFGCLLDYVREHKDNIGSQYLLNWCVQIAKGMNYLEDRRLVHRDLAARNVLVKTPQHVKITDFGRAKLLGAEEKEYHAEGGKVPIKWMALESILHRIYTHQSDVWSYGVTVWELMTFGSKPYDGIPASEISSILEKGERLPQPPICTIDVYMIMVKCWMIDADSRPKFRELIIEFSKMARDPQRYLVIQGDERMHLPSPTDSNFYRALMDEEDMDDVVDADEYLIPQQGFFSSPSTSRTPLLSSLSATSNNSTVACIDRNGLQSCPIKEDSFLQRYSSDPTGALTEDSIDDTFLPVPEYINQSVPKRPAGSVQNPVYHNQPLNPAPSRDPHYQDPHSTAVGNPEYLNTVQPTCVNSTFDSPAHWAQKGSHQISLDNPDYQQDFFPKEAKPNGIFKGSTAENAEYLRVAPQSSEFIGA
# run.description: EGFR degradation HTRF assay, H1975-clone #36 cells
# Format: cell-based
# condition.context: NCI-H1975; H1975 #36, 16h treatment, maximum percentage of degradation
metric.name: Dmax (%)
The response must be a number in % with no trailing unit.

Need Dmax, item COc1cc(N2CCC(N3CCN(CCC4CCN(c5ccc(N6CCC(=O)NC6=O)c(F)c5)CC4)CC3)CC2)ccc1Nc1ncc(Cl)c(Nc2ccccc2N(C)S(C)(=O)=O)n1
27.2

Same thing, different molecule: CCc1cc(Nc2ncc(Br)c(Nc3ccc4nccnc4c3P(C)(C)=O)n2)c(OC)cc1N1CCC(N2CCN(CCc3ccc(C4CCC(=O)NC4=O)cn3)CC2)CC1 (stereo not shown)
42.8

Now the same for COc1cc(N2CCN(CC3CCN(c4ccc(N5CCC(=O)NC5=O)cc4)CC3)CC2)c(C)cc1Nc1ncc(Br)c(Nc2ccc3nccnc3c2P(C)(C)=O)n1
61.6

Further, for COc1cc(N2CCN(CC3CCN(c4ccc(N5CCC(=O)NC5=O)c(C)c4)CC3)CC2)c(C)cc1Nc1ncc(Br)c(Nc2ccc3nccnc3c2P(C)(C)=O)n1 ?
35.6

Follow-up entry: CCc1cc(Nc2ncc(Br)c(Nc3ccc4nccnc4c3P(C)(C)=O)n2)c(OC)cc1N1CCC(N2CCN(C[C@H]3CCN(c4ccc(C5CCC(=O)NC5=O)cc4)C3)CC2)CC1 (stereo partly shown)
85.6

Item: CCc1cc(Nc2ncc(Br)c(Nc3ccc4nccnc4c3P(C)(C)=O)n2)c(OC)cc1N1CCC(N2CCN(CCc3ccc(C4CCC(=O)NC4=O)cc3)CC2)CC1 (stereo not shown)
60.8

// next record CCc1cc(Nc2ncc(Br)c(Nc3ccc4nccnc4c3P(C)(C)=O)n2)c(OC)cc1N1CCC(N2CCN(CCc3ccc(NC4CCC(=O)NC4=O)cc3)CC2)CC1 (stereo not shown)
64.5

What about this molecule? CCc1cc(Nc2ncc(Br)c(Nc3ccc4nccnc4c3P(C)(C)=O)n2)c(OC)cc1N1CCC(N2CCN(C(=O)CC3CN(c4ccc5c(c4)C(=O)N(C4CCC(=O)NC4=O)C5=O)C3)CC2)CC1 (stereo not shown)
69

Entry CCc1cc(Nc2ncc(Br)c(Nc3ccc4nccnc4c3P(C)(C)=O)n2)c(OC)cc1N1CCC(N2CCN(CC3CN(c4ccc5c(c4)CN(C4CCC(=O)NC4=O)C5=O)C3)CC2)CC1 (stereo not shown) please
76.8

What do we get for CCc1cc(Nc2ncc(Br)c(Nc3ccc4nccnc4c3P(C)(C)=O)n2)c(OC)cc1N1CCC(N2CCN(C(=O)[C@H]3C[C@H](N(C)c4ccc(C5CCC(=O)NC5=O)cc4)C3)CC2)CC1 (stereo partly shown) ?
72.8

// same read-out, input: CP(C)(=O)c1c(Nc2nc(Nc3ccc(N4CCN(C5CN(CCC6CCN(c7ccc(C8CCC(=O)NC8=O)c(F)c7)CC6)C5)CC4)c(F)c3)ncc2Br)ccc2nccnc12 (stereo not shown)
95.8

And for COc1cc(N2CCC(N3CCN(CCc4ccc(C5CCC(=O)NC5=O)cc4)CC3)CC2)ccc1Nc1ncc(Cl)c(Nc2ccccc2P(C)(C)=O)n1 (stereo not shown) ?
74.7

Param item: CCc1cc(Nc2ncc(Br)c(Nc3ccc4nccnc4c3P(C)(C)=O)n2)c(OC)cc1N1CCC(N2CCN(CCOCCC(=O)N[C@H](C(=O)N3C[C@H](O)C[C@H]3C(=O)NCc3ccc(-c4scnc4C)cc3)C(C)(C)C)CC2)CC1
79.6

Also, COc1cc(N2CCC(N3CCN(C(=O)C4CCN(CC5CCN(c6ccc7c(c6)C(=O)N(C6CCC(=O)NC6=O)C7=O)CC5)CC4)CC3)CC2)ccc1Nc1ncc(Cl)c(Nc2ccccc2N(C)S(C)(=O)=O)n1 (stereo not shown) please.
85.4

Another molecule to look at: CCc1cc(Nc2ncc(Br)c(Nc3ccc4nccnc4c3P(C)(C)=O)n2)c(OC)cc1N1CCC(N2CCN(C(=O)C3CCN(c4ccc5c(c4)C(C)(C)C(=O)N5C4CCC(=O)NC4=O)CC3)CC2)CC1 (stereo not shown)
69.6

For CCc1cc(Nc2ncc(Br)c(Nc3ccc4nccnc4c3P(C)(C)=O)n2)c(OC)cc1N1CCC(N2CCN(CCc3ccc(C4CCC(=O)NC4=O)c(C)c3)CC2)CC1 (stereo not shown) then?
45.1

====

# assay.target: EGFR L858R/T790M/C797S (BaF3-LTC cells) (Homo sapiens, UniProt P00533, C797S/L858R/T790M)
# Construct: expressed in transfected cells; host or cells: BaF3
# run.description: EGFR degradation HTRF assay, BaF3-LTC cells
# Format: cell-based
# condition.context: BaF3-LTC, 16h treatment, maximum percentage of degradation; read-out: LTC Dmax (%)
metric.name: Dmax (%)
Reply with just the number (in %).

What value of Dmax has been recorded for this entry: CP(C)(=O)c1c(Nc2nc(Nc3ccc(N4CCN(C5CN(CCC6CCN(c7ccc(C8CCC(=O)NC8=O)c(F)c7)CC6)C5)CC4)c(F)c3)ncc2Br)ccc2nccnc12 (stereo not shown)
82.1

Same thing, different compound: CCc1cc(Nc2ncc(Br)c(Nc3ccc4nccnc4c3P(C)(C)=O)n2)c(OC)cc1N1CCC(N2CCN(C(=O)C3CN(c4ccc5nn(C6CCC(=O)NC6=O)cc5c4)C3)CC2)CC1 (stereo not shown)
82

Proceed to CCc1cc(Nc2ncc(Br)c(Nc3ccc4nccnc4c3P(C)(C)=O)n2)c(OC)cc1N1CCC(N2CCN(CCNc3cccc4c3CN(C3CCC(=O)NC3=O)C4=O)CC2)CC1 (stereo not shown)
89.4

What about this compound? CCc1cc(Nc2ncc(Br)c(Nc3ccc4nccnc4c3P(C)(C)=O)n2)c(OC)cc1N1CCC(N2CCN(CCC3CCN(c4ccc(C5CCC(=O)NC5=O)cc4)CC3)CC2)CC1 (stereo not shown)
89

And for CCc1cc(Nc2ncc(Br)c(Nc3ccc4nccnc4c3P(C)(C)=O)n2)c(OC)cc1N1CCC(N2CCN(C(=O)[C@@H]3CCN(c4ccc5c(c4)CN(C4CCC(=O)NC4=O)C5=O)C3)CC2)CC1 (stereo partly shown) ?
87.6

// repeat for CCc1cc(Nc2ncc(Br)c(Nc3ccc4nccnc4c3P(C)(C)=O)n2)c(OC)cc1N1CCC(N2CCN(CCCC3CN(c4ccc5c(c4)C(=O)N(C4CCC(=O)NC4=O)C5=O)C3)CC2)CC1 (stereo not shown) and report
79.5

Queued: CCc1cc(Nc2ncc(Br)c(Nc3ccc4nc(C)ccc4c3P(C)(C)=O)n2)c(OC)cc1N1CCC(N2CCN(CCc3cc(F)c(C4CCC(=O)NC4=O)c(F)c3)C[C@@H]2C)CC1 (stereo partly shown)
89.8

Now give it for CCc1cc(Nc2ncc(Cl)c(Nc3ccc4nccnc4c3P(C)(C)=O)n2)c(OC)cc1N1CCC(N2CCN(CCC3CCN(c4cc(F)c(C5CCC(=O)NC5=O)c(F)c4)CC3)CC2)CC1 (stereo not shown) too.
88.8

Similarly, CCc1cc(Nc2ncc(Br)c(Nc3ccc4nccnc4c3P(C)(C)=O)n2)c(OC)cc1N1CCC(N2CCN(C[C@@H]3CCN(c4ccc5c(c4)C(=O)N(C4CCC(=O)NC4=O)C5=O)C3)CC2)CC1 (stereo partly shown) ?
78

Now give it for CCc1cc(Nc2ncc(Br)c(Nc3ccc4nccnc4c3P(C)(C)=O)n2)c(OC)cc1N1CCC(N2CCN(CCN(C)c3ccc4c(c3)CN(C3CCC(=O)NC3=O)C4=O)CC2)CC1 (stereo not shown) too.
80

Repeat with CCc1cc(Nc2ncc(Br)c(Nc3ccc4nccnc4c3P(C)(C)=O)n2)c(OC)cc1N1CCC(N2CCN(C(=O)[C@H]3CCN(c4cccc(C5CCC(=O)NC5=O)c4)C3)CC2)CC1 (stereo partly shown)
79.2

Same question for CCc1cc(Nc2ncc(Br)c(Nc3ccc4nc(C)ccc4c3P(C)(C)=O)n2)c(OC)cc1N1CCC(N2CCN(C3CC(c4ccc(NC5CCC(=O)NC5=O)cc4)C3)CC2)CC1 (stereo not shown) please.
87.9

Proceed to COc1cc(N2CCC(N3CCN(CCC4CCN(c5cc(F)c(C6CCC(=O)NC6=O)c(F)c5)CC4)CC3)CC2)c(C)cc1Nc1ncc(Br)c(Nc2ccc3nc(C)ccc3c2P(C)(C)=O)n1 (stereo not shown)
89.6

Please answer likewise for CCc1cc(Nc2ncc(Br)c(Nc3ccc4nccnc4c3P(C)(C)=O)n2)c(OC)cc1N1CCC(N2CCN(C(=O)[C@@H]3CCN(c4ccc(C5CCC(=O)NC5=O)cc4)C3)CC2)CC1 (stereo partly shown)
81.5

Same read-out for CCc1cc(Nc2ncc(Br)c(Nc3ccc4nc(C)ccc4c3P(C)(C)=O)n2)c(OC)cc1N1CCC(N2CCN(C(=O)C3CN(c4ccc5c(c4)C(C)(C)C(=O)N5C4CCC(=O)NC4=O)C3)CC2)CC1 (stereo not shown) ?
96.1

Repeat with CCc1cc(Nc2ncc(Br)c(Nc3ccc4nc(C)ccc4c3P(C)(C)=O)n2)c(OC)cc1N1CCC(N2CCN(C(=O)C(C)(C)CNc3cc(F)c(C4CCC(=O)NC4=O)c(F)c3)CC2)CC1 (stereo not shown)
90.8

Try CCc1cc(Nc2ncc(Br)c(Nc3ccc4c(=O)n(C)ccc4c3P(C)(C)=O)n2)c(OC)cc1N1CCC(N2CCN(CCC3CCN(c4cc(F)c(C5CCC(=O)NC5=O)c(F)c4)CC3)CC2)CC1 (stereo not shown) next.
91.7

Lookup CCc1cc(Nc2ncc(Br)c(Nc3ccc4nccnc4c3P(C)(C)=O)n2)c(OC)cc1N1CCC(N2CCN(CCc3cc(Cl)c(C4CCC(=O)NC4=O)cc3F)CC2)CC1 (stereo not shown)
80.1

Would you mind doing CCc1cc(Nc2ncc(Br)c(Nc3ccc4nccnc4c3P(C)(C)=O)n2)c(OC)cc1N1CCC(N2CCN(CCc3ccc(C4CCC(=O)NC4=O)c(F)c3)[C@H](CO)C2)CC1 (stereo partly shown) as well?
87.2
